- TEST_TARGET: T1, RC3H2 RNA-binding region (HEPN+ROQ), wild type (Homo sapiens, UniProt Q9HBD1 87-404)
- T1 sequence: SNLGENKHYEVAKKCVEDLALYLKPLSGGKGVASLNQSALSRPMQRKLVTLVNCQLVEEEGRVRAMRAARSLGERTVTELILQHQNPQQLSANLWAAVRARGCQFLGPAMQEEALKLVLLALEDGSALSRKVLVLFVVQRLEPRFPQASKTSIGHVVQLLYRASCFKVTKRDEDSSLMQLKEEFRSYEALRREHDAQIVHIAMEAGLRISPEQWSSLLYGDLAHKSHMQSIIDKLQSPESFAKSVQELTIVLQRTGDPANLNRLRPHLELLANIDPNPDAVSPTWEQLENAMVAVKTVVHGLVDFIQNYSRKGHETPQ
- ASSAY_COMMENT: ITC; ITC: 20 mM Tris-HCl pH 8.0, 150 mM NaCl, 1 mM TCEP, 25 C; 200-500 uM RNA injected into 15-30 uM protein, one-site model
- ASSAY_SETUP: protein: recombinant; tags: His6-tag (pET28-MHL N-terminal TEV-cleavable, or pNIC-CH C-terminal uncleavable); removed by TEV where applicable; hairpin; mainly stem-loop in solution
ENDPOINT: Kd

Would you kindly share the measured Kd for AUGUUCUGUGAACAC (structured_RNA) [Ier3 CDE RNA, 15-nt] ?
356 nM
